The measured values listed here are drawn from patent US20240239886A1.

# target of assay: T1, recombinant protein consisting of the extracellular domain of human TREM2 fused to the His tag (human, UniProt Q9NZC2 19-174)
# T1 construct: also called His tagged hTREM2; His-TREM2
# T1 sequence: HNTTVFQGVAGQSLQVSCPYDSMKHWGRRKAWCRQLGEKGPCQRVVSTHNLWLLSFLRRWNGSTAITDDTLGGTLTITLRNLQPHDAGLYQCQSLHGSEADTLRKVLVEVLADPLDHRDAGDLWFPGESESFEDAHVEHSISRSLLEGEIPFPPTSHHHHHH
# test: direct ELISA, coated His-TREM2 0.5 ug/mL, Ab stock 1 mg/mL
Think of 0.6 OD as a floor: if OD at dilution 81000 stands on it or above, it is met; beneath it, not met.

binder	group label
60H4A3 (antibody, V domains shown, Biotin conjugated in sup ELISA, cell-based ELISA and flow cytometry) VH: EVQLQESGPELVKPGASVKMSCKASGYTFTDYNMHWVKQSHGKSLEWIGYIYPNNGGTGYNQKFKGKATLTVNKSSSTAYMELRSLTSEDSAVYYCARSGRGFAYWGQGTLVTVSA VL: DIVMTQSPASLSVTPGDRVSLSCRASQSISDYLHWYQQKSHESPRLLIKYASQSISGIPSRFSGSGSGSDFTLSINSVEPEDVGVYYCQNGHSFPYTFGGGTKLEIK	met
60H4G2 (antibody, V domains shown, Biotin conjugated in sup ELISA, cell-based ELISA and flow cytometry) VH: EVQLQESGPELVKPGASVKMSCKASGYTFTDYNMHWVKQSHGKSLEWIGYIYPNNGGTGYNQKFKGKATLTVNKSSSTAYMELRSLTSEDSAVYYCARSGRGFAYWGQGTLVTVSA VL: DIVMTQSTSSLTVTAGEKVTMSCKSSQSLLNSGNQKNYLTWYQQKPGQPPKLLIYWASSRESGVPDRFTGRGSGTDFTLTISSVQAEDLAVYYCQNDYSYPFTFGSGTKLEIK	met
83E10B12 (antibody, V domains shown, Biotin conjugated in sup ELISA, cell-based ELISA and flow cytometry) VH: QVQLQESGPELVKPGASVKISCKASGYIFSYSWMNWVKQRPGKGLEWIGRIYPGDGDADYNGKFKGKATLTADKSSNTAYMQLTSLTSEDSAVYFCARLHIYDGYYVSVYWGQGTLVTVSA VL: DIQMTQTTSCLSASLGDRVTISCRASQDINNYLSWYQQKPDGTVKLLIYYTSKLHSGVPSRFSGSGSGTDYSLTIGNLEQEDVATYFCQQGDTLPWTFGGGTRLEIK	not met
80E3C7 (antibody, V domains shown, Biotin conjugated in sup ELISA, cell-based ELISA and flow cytometry; also called anti-TREM2 antibody (E3C7); TREM2 Ab E3C7) VH: QVQLQQPGAEPLKPGASVKMSCEASGYTFTNFWITWMKLRPGQGLEWIGDIYPGTGNTNYNEKFKSRATLTVDTSSTTAYMQLSSLTSEDSAVYYCAREAYYTNPGFAYWGHGTLVTVSA VL: DVLMTQSPLSLPVNLGDQASISCKSSQNIVHSNGNTYLEWYLQRPGQSPKLLIYKVSNRFSGVPDRFSGSGSGTDFTLKISRVEAEDLGVYYCFQGSHVPYTFGGGTKLEIK	met

-- ask Given 61B11C9 (antibody, V domains shown, Biotin conjugated in sup ELISA, cell-based ELISA and flow cytometry) VH: QLQESGPEQVKPGASVKMSCRTSGYTFTAYNMHWVKQRLGKSLEWIGYIRPTNGDTRYNRRFRDKATLTVDKSSSTTYMELRSLTSEDSAVYYCTRSTTVASFDYWGQGTTLTVSS VL: DIVMTQTTSSLTVSVGQKITLNCKSSQSLLYTNNQKNFLAWYQQKPGQSPKLLIYWASTRDSGVPDRFTGSGSGTDFTLTITSVMAEDLAVYFCQQYYDFPPTFGGGTKLEIK , state whether its OD at dilution 81000 is at least 0.6 OD.
-- reply met
